All figures here come from patent US9850256B2.

tested on: S. aureus A798; experiment: Bacterial growth minimal inhibitory concentration (microdilution, cation-adjusted Mueller-Hinton Broth); type: cell-based, Staphylococcus aureus; conditions: Staphylococcus aureus, A798; multiply-resistant strain (methicillin- and quinolone-resistant)
Observed property: MIC (µg/mL)
Reply with just the number (in µg/mL).

> print(dat)
                                   compound  display.unit  result.number
1  O=C1COc2ccc(N3C[C@H](CCNCc4cccc(-c5cccc(OC[C@@H]6CCN6)c5)c4)OC3=O)nc2N1         µg/mL              2

MIC for C[C@@H]1[C@H](Oc2cccc(-c3cccc(CNCC[C@H]4CN(c5ccc6c(n5)NC(=O)CO6)C(=O)O4)c3)n2)CN1C (mixture of isomers) ?
0.125

For CN1CCC[C@H](Oc2cccc(-c3cccc(CNCCC4CN(c5ccc6c(n5)NC(=O)CO6)C(=O)O4)c3)n2)C1 (mixture of isomers) then?
0.5

For O=C1COc2ccc(N3C[C@H](CCNCc4cccc(-c5cccc(OC[C@H]6CCN6)n5)c4)OC3=O)nc2N1 then?
1

For CN1CC[C@@H](Oc2cnnc(-c3cccc(CNCC[C@H]4CN(c5ccc6c(n5)NC(=O)CO6)C(=O)O4)c3)c2)C1 then?
4

For CN1CCC[C@H]1COc1cccc(-c2cccc(CNCC[C@H]3CN(c4ccc5c(n4)NC(=O)CO5)C(=O)O3)c2)n1 then?
0.25

For NCCNCCOc1cccc(-c2cccc(CNCC[C@H]3CN(c4ccc5c(n4)NC(=O)CO5)C(=O)O3)c2)n1 then?
1

For CNCCOc1cncc(-c2cccc(CNCC[C@H]3CN(c4ccc5c(n4)NC(=O)CO5)C(=O)O3)c2)n1 then?
0.5

For O=C1COc2ccc(N3C[C@H](CCNCc4cccc(-c5cccc(OC6CNC6)c5)c4)OC3=O)nc2N1 then?
2

###

system: S. aureus A798; experiment: Bacterial growth minimal inhibitory concentration (microdilution, cation-adjusted Mueller-Hinton Broth); assay type: cell-based, Staphylococcus aureus; settings: Staphylococcus aureus, A798; multiply-resistant strain (methicillin- and quinolone-resistant)
Observed property: log10 MIC (log10 of the value in µg/mL)
Values below are the log10 of the recorded MIC, with µg/mL as the unit.

> print(dat)
                                   compound  observed.property  result.number
1  CC(CN)Oc1cccc(-c2cccc(CNCC[C@H]3CN(c4ccc5c(n4)NC(=O)CO5)C(=O)O3)c2)c1 (mixture of isomers)          log10 MIC           0.60
2  C[C@@H]1NCC[C@@H]1Oc1cccc(-c2cccc(CNCC[C@H]3CN(c4ccc5c(n4)NC(=O)CO5)C(=O)O3)c2)n1 (relative stereo)          log10 MIC          -0.30
3  O=C1COc2ccc(N3C[C@H](CCNCc4cccc(-c5cccc(OCCN6CCCC6)n5)c4)OC3=O)nc2N1          log10 MIC          -0.90
4  COc1cc(OCCN)cc(-c2ccnc(CNCC[C@H]3CN(c4ccc5c(n4)NC(=O)CO5)C(=O)O3)c2)n1          log10 MIC           0.00
5  CN(C)CCOc1cnnc(-c2cccc(CNCC[C@H]3CN(c4ccc5c(n4)NC(=O)CO5)C(=O)O3)c2)c1          log10 MIC           0.90
6  CN1CC[C@H](Oc2cccc(-c3cccc(CNCC[C@H]4CN(c5ccc6c(c5)NC(=O)CS6)C(=O)O4)c3)n2)C1          log10 MIC          -0.60

For the next question, use this compound.
Entry CN1CC(Oc2cncc(-c3cc(CNCC[C@H]4CN(c5ccc6c(n5)NC(=O)CO6)C(=O)O4)ccn3)n2)C1 , system S. aureus A798: what log10 MIC was measured?
-0.60

###

test system: S. aureus A798; experiment: Bacterial growth minimal inhibitory concentration (microdilution, cation-adjusted Mueller-Hinton Broth); format: cell-based, Staphylococcus aureus; conditions: Staphylococcus aureus, A798; multiply-resistant strain (methicillin- and quinolone-resistant)
Entries and their MIC
Reply with just the number (in µg/mL).

Consider the reported MIC for these compounds:
> print(dat)
                                   compound  result.number
1  CN1CC(COc2cccc(-c3cccc(CNCC[C@H]4CN(c5ccc6c(n5)NC(=O)CO6)C(=O)O4)c3)n2)C1 [Example $113]            0.5
2  CN1CC(Oc2cncc(-c3ccnc(CNCC[C@H]4CN(c5ccc6c(n5)NC(=O)CO6)C(=O)O4)c3)n2)C1 [Example $187]            0.5
3  CN1CCC(Oc2cccc(-c3cccc(CNCC[C@H]4CN(c5ccc6c(n5)NC(=O)CO6)C(=O)O4)c3)n2)CC1 [Example $127]              1
4  NCCOc1cccc(-c2cccc(CNCC[C@H]3CN(c4ccc5c(n4)NC(=O)CO5)C(=O)O3)c2)n1 [Example 8]           0.25
5  NCCOc1cncc(-c2ccnc(CNCC[C@H]3CN(c4ccc5c(n4)NC(=O)CO5)C(=O)O3)c2)n1 [Example $158]              4

Entry CN1CC(Oc2cccc(-c3cc(CNCC[C@H]4CN(c5ccc6c(n5)NC(=O)CO6)C(=O)O4)ccn3)n2)C1 [Example $185] , system S. aureus A798: what MIC was measured?
0.125

For O=C1COc2ccc(N3C[C@H](CCNCc4cccc(-c5cccc(OC[C@@H]6CCNC6)n5)c4)OC3=O)nc2N1 [Example $143] then?
2

###

system: S. aureus A798; assay: Bacterial growth minimal inhibitory concentration (microdilution, cation-adjusted Mueller-Hinton Broth); assay type: cell-based, Staphylococcus aureus; details: Staphylococcus aureus, A798; multiply-resistant strain (methicillin- and quinolone-resistant)
Observed property: MIC

Consider the reported MIC for these molecules:
> print(dat)
                                smiles.text     result
1  CN1CC[C@H](Oc2ccnc(-c3cccc(CNCC[C@H]4CN(c5ccc6c(n5)NC(=O)CO6)C(=O)O4)c3)n2)C1  0.5 µg/mL
2  N[C@@H]1CC[C@H](Oc2cccc(-c3cccc(CNCC[C@H]4CN(c5ccc6c(n5)NC(=O)CO6)C(=O)O4)c3)c2)C1    2 µg/mL
3  O=C1COc2ccc(N3C[C@H](CCNCc4cccc(-c5cccc(OCC6CNC6)n5)c4)OC3=O)nc2N1    2 µg/mL

For the next question, use this molecule.
MIC for NCCOc1ccnc(-c2ccnc(CNCC[C@H]3CN(c4ccc5c(n4)NC(=O)CO5)C(=O)O3)c2)c1 ?
8 µg/mL

###

system: S. aureus A798; assay: Bacterial growth minimal inhibitory concentration (microdilution, cation-adjusted Mueller-Hinton Broth); assay type: cell-based, Staphylococcus aureus; details: Staphylococcus aureus, A798; multiply-resistant strain (methicillin- and quinolone-resistant)
Observed property: MIC (µg/mL)
Reply with just the number (in µg/mL).

Consider the reported MIC for these compounds:
> print(dat)
                                   compound  display.unit  result.number
1  COc1cc(O[C@H]2CCN(C)C2)cc(-c2cccc(CNCC[C@H]3CN(c4ccc5c(n4)NC(=O)CO5)C(=O)O3)c2)n1 [Example $170]         µg/mL           0.25
2  O=C1COc2ccc(N3C[C@H](CCNCc4cccc(-c5cccc(O[C@@H]6CCNC6)n5)c4)OC3=O)nc2N1 [Example $118]         µg/mL              2
3  O=C1COc2ccc(N3C[C@H](CCNCc4cccc(-c5cccc(OCC6CNCCO6)n5)c4)OC3=O)nc2N1.O=CO (mixture of isomers) [Example $109]         µg/mL            0.5
4  CO[C@H]1CNC[C@H]1Oc1cccc(-c2cccc(CNCC[C@H]3CN(c4ccc5c(n4)NC(=O)CO5)C(=O)O3)c2)n1 (relative stereo) [Example $184]         µg/mL              8

MIC for CN1CC[C@H](Oc2cncc(-c3cc(CNCC[C@H]4CN(c5ccc6c(n5)NC(=O)CO6)C(=O)O4)ccn3)n2)C1 [Example $147] ?
1

For CN1CC[C@@H](COc2cccc(-c3cccc(CNCC[C@H]4CN(c5ccc6c(n5)NC(=O)CO6)C(=O)O4)c3)n2)C1 [Example $140] then?
0.5

###

Entries and their MIC
system: S. aureus A798; experiment: Bacterial growth minimal inhibitory concentration (microdilution, cation-adjusted Mueller-Hinton Broth); assay type: cell-based, Staphylococcus aureus; details: Staphylococcus aureus, A798; multiply-resistant strain (methicillin- and quinolone-resistant)
Reply with just the number (in µg/mL).

Consider the reported MIC for these compounds:
> print(dat)
                                   compound  result.number
1  O=C1COc2ccc(N3C[C@H](CCNCc4cccc(-c5cc(O[C@H]6CCNC6)cnn5)c4)OC3=O)nc2N1             16
2  O=C1COc2ccc(N3C[C@H](CCNCc4cccc(-c5cccc(OCC6COCCN6)n5)c4)OC3=O)nc2N1.O=CO (mixture of isomers)           0.25
3  COc1cc(OCCN)cc(-c2cccc(CNCC[C@H]3CN(c4ccc5c(n4)NC(=O)CO5)C(=O)O3)c2)c1            0.5
4  CN1CC[C@H]1COc1cccc(-c2cccc(CNCC[C@H]3CN(c4ccc5c(n4)NC(=O)CO5)C(=O)O3)c2)n1           0.25
5  CN1CC[C@@H](Oc2cccc(-c3cccc(CNCC[C@@H]4CN(c5ccc6c(c5)NC(=O)CS6)C(=O)O4)c3)n2)C1           0.25

Entry CN1CC(Oc2cccc(-c3ccnc(CNCC[C@H]4CN(c5ccc6c(n5)NC(=O)CO6)C(=O)O4)c3)n2)C1 , system S. aureus A798: what MIC was measured?
0.25

For O=C1COc2ccc(N3C[C@H](CCNCc4cccc(-c5cccc(OC[C@H]6CCNC6)n5)c4)OC3=O)nc2N1 then?
2
